Target: UniProtKB P31648
Experiment: Inhibition of mouse GAT-1 assessed as percentage of remaining specific binding of NO711 at 1 uM after 4 hrs by LC-ESI-MS/ms analysis relative to control
Assay endpoint: Activity (%)

>>> recorded_result("O=Cc1ccccc1-c1ccccc1")
90
>>> recorded_result("O=CC(c1ccccc1)c1ccccc1")
90
>>> recorded_result("O=C(O)C1CCCN(CCO/N=C/c2ccc(O)cc2)C1 (racemic)")
74
>>> recorded_result("O=C(O)C1CCCN(CCO/N=C/c2cccnc2-c2cccc(F)c2)C1 (racemic)")
22

###

Biological target: Sodium- and chloride-dependent GABA transporter 1 (Mus musculus) (UniProt P31648)
Assay: Inhibition of mouse GAT-1 assessed as percentage of remaining specific binding of NO711 at 1 uM after 4 hrs by LC-ESI-MS/ms analysis relative to control
Simple rule here: Activity less than 90% is Yes, otherwise No.

>>> label_class("O=C(O)C1CCCN(CCO/N=C/c2cc(F)ccc2-c2ccc(Cl)cc2Cl)C1 (racemic)")
"Yes"
>>> label_class("O=Cc1ccnc2ccccc12")
"Yes"
>>> label_class("O=C(O)C1CCCN(CCO/N=C/c2ccccc2-c2cccs2)C1 (racemic)")
"Yes"
>>> label_class("O=Cc1sccc1-c1ccccc1")
"No"
>>> label_class("O=Cc1csc2ccccc12")
"No"
>>> label_class("O=C(O)C1CCCN(CCO/N=C/COCc2ccccc2)C1 (racemic)")
"Yes"
>>> label_class("O=C(O)C1CCCN(CCO/N=C/c2ccncc2)C1 (racemic)")
"Yes"
>>> label_class("O=Cc1cccc2c1OCO2")
"Yes"
>>> label_class("O=Cc1cccnc1-c1ccc(Cl)cc1Cl")
"Yes"
>>> label_class("O=C(O)C1CCCN(CCO/N=C/c2ccc(F)c3ccccc23)C1 (racemic)")
"Yes"
>>> label_class("O=Cc1sccc1-c1ccc(Cl)cc1Cl")
"Yes"
>>> label_class("O=Cc1ccccc1-c1ccccc1Cl")
"No"

###

Biological target: Sodium- and chloride-dependent GABA transporter 1 (Mus musculus) (UniProt P31648)
Test: Inhibition of mouse GAT-1 assessed as percentage of remaining specific binding of NO711 at 100 nM after 4 hrs by LC-ESI-MS/ms analysis relative to control
Assay endpoint: Activity

>>> recorded_result("O=C(O)C1CCCN(CCO/N=C/c2ccccc2-c2ccc3ccccc3c2)C1 (racemic)")
"Below limit of detection"
>>> recorded_result("O=C(O)C1CCCN(CCO/N=C/c2ccc(-c3ccccc3OC(F)(F)F)o2)C1 (racemic)")
"Below limit of detection"
>>> recorded_result("O=C(O)C1CCCN(CCO/N=C/c2sccc2-c2ccc(Cl)cc2Cl)C1 (racemic)")
"Below limit of detection"

###

Target: Sodium- and chloride-dependent GABA transporter 1 (Mus musculus) (UniProt P31648)
Assay: Inhibition of mouse GAT-1 assessed as percentage of remaining specific binding of NO711 at 1 uM after 4 hrs by LC-ESI-MS/ms analysis relative to control
Assay endpoint: Activity (%)

>>> recorded_result("O=C(O)C1CCCN(CCO/N=C/c2cccnc2-c2ccccc2)C1 (racemic)")
22
>>> recorded_result("O=Cc1ccccc1-c1ccc(Cl)cc1Cl")
93
>>> recorded_result("O=C(O)C1CCCN(CCO/N=C/c2ccccc2-c2ccc(F)cc2Cl)C1 (racemic)")
11
>>> recorded_result("O=C(O)C1CCCN(CCO/N=C/c2ccc(Br)nc2)C1 (racemic)")
71
>>> recorded_result("O=Cc1ccccc1-c1ccc(F)cc1Cl")
93
>>> recorded_result("O=C(O)C1CCCN(CCO/N=C/c2ccccc2-c2cccc(F)c2F)C1 (racemic)")
39
>>> recorded_result("O=Cc1ccc2ccccc2n1")
87
>>> recorded_result("O=C(O)C1CCCN(CCO/N=C/c2ccccn2)C1 (racemic)")
45
>>> recorded_result("O=Cc1ccccc1-n1cccn1")
88

###

Measured Activity accompanies every entry in the list below.
Target: Sodium- and chloride-dependent GABA transporter 1 (Mus musculus) (UniProt P31648)
Assay: Inhibition of mouse GAT-1 assessed as percentage of remaining specific binding of NO711 at 1 uM after 4 hrs by LC-ESI-MS/ms analysis relative to control
Assay endpoint: Activity (%)

>>> recorded_result("O=Cc1ccc(Br)cn1")
92
>>> recorded_result("O=Cc1ccccc1")
89
